Test system: HTT mRNA canonical junction (CJ)
Experiment: Splicing RT-qPCR assay, decrease of HTT canonical junction (CJ) mRNA
Format: cell-based
Details: A673 or K562 cells, 24 hours compound treatment, concentration having 50% response in CJ decrease
Outcome measure: AC50

Compound: CCN1CCC(c2ccc(C(=O)Nc3cc(F)c4nc(C)cn4c3)c3oc(C)cc23)CC1
Tested system: HTT mRNA canonical junction (CJ)
Outcome measure: AC50
Assay result: 1000 to 10000 nM

Sample `Cc1cn2cc(NC(=O)c3ccc(N(C)C4CCN(C)CC4)c4cc(C)oc34)cc(F)c2n1` , system: HTT mRNA canonical junction (CJ). Its AC50 is 1000 to 10000 nM

// AC50 (HTT mRNA canonical junction (CJ)) for Cc1cn2cc(NC(=O)c3ccc(N4CCC(NC(C)(C)C)C4)c4cc(C)oc34)cc(F)c2n1 (stereo not shown) = 1000 to 10000 nM

Item: Cc1cn2cc(NC(=O)c3ccc(N4CCC(N5CCCC5)C4)c4cn(C)nc34)cc(F)c2n1 (stereo not shown) | System: HTT mRNA canonical junction (CJ) | AC50: 100 to 1000 nM

src = patent US20230365566A1
